Value source: patent US20120027679A1

# study system: T1, HER2 (epidermal growth factor receptor 2) on N87 cells (UniProt P04626 23-1255, limits assumed)
# T1 construct: whole, on cells; N87 cells are used as HER2-positive cells; also called HER2-positive cells (N87); HER2-expressing cells
# test: saturation binding to N87 cells, Scatchard plot, apparent Kd; HBP2 particle
Where no end group is shown, it is not given here. Side-chain parts run from the residue outwards. maleimide = maleimide group (reactive functional group for coupling a ligand)
metric: Kd (nM)
Respond numerically; units are nM and should not be typed.

QUERY: Dear colleague, I am looking for the recorded Kd of the following binder: MARSGLGGKGSC([maleimide-PEG 300-iron oxide nanoparticle 200 nm]) (not fully specified) [HBP2-EO-NP-200: HER2-binding peptide-immobilized 200-nm particle containing an iron oxide particle]
RESULT: 0.43
